Test system: VCaP cells
Assay: VCaP growth inhibition assay
Assay type: cell-based
Settings: 30 pM R1881, 9 days, CTG
property_measured: IC50

Worked cases, answers included:
{"molecule": "COc1cc(OC2C(C)(C)C(NC(=O)c3ccc(N4CC(N5CCC6(CCC(n7nc(N8CCCc9cc(-c%10cnn(C)c%10)c(C(F)F)cc98)c8c7CCN(C(C)=O)C8)CC6)C5)C4)cc3)C2(C)C)ccc1C#N (centres unmarked) [Compound 401]", "property_measured": "IC50", "reported": "100 to 1000 pM"}
{"molecule": "COc1cc(OC2C(C)(C)C(NC(=O)c3ccc(N4CCC5(CCC(n6cc(-c7cc8cccc(-c9nn(C%10CCOCC%10)c%10c9CN(C(C)=O)CC%10)c8cn7)cn6)CC5)CC4)cc3)C2(C)C)ccc1C#N (centres unmarked) [Compound 269]", "property_measured": "IC50", "reported": "100 to 1000 pM"}
{"molecule": "C[C@@H]1CC(=O)Nc2cccc(-c3ccc4c(c3)c(C3CC3)nn4CCCN3CCN(c4ncc(C(=O)NC5C(C)(C)C(Oc6ccc(C#N)c(Cl)c6)C5(C)C)cn4)CC3)c2N1 (some centres unmarked) [Compound 59]", "property_measured": "IC50", "reported": "> 100000 pM"}
{"molecule": "CNC(=O)N1CCc2c(c(N3CCCc4cc(-c5cnn(C)c5)c(C(F)F)cc43)nn2C2CCN(C(=O)COCCN3CCN(c4ncc(C(=O)NC5C(C)(C)C(Oc6ccc(C#N)c(Cl)c6)C5(C)C)cn4)CC3)CC2)C1 (centres unmarked) [Compound 106]", "property_measured": "IC50", "reported": "≤ 100 pM"}

Turning to the following molecule.
Incoming: If you can, please state the reported IC50 value of COc1cc(OC2C(C)(C)C(NC(=O)c3ccc(N4CCC(n5ncc6c5CCC(n5nc(N7CCCc8cc(-c9cnn(C)c9)c(C(F)F)cc87)c7c5CCN(C(C)=O)C7)C6)CC4)cc3)C2(C)C)ccc1C#N (centres unmarked) [Compound 265] .
Outgoing: ≤ 100 pM

----------
Kindly supply the reported pIC50 values for the records listed here.
Tested on: VCaP cells
Assay: VCaP growth inhibition assay
Format: cell-based
Details: 30 pM R1881, 9 days, CTG
Method: VCaP cells (ATCC Cat #CRL-2876) are plated at 1×10^4 cells per well of a white plastic 96-well cluster plate (Thermo Scientific Nunc Cat #165306) in 100 uL phenol red-free DMEM (Gibco Cat #21063-029) media with 5% CSS (Omega Scientific Cat #FB-04). Cluster plates are returned to the incubator (37*C/5% CO2) for 72 hours prior to treatment. […]
pIC50: −log10 of the molar value.

{"compound": "CNC(=O)N1CCc2c(c(N3CCCc4cc(-c5cnn(C)c5)c(C(F)F)cc43)nn2C2CCN(C(=O)COC3CCN(c4ncc(C(=O)NC5C(C)(C)C(Oc6ccc(C#N)c(Cl)c6)C5(C)C)cn4)CC3)CC2)C1 (centres unmarked) [Compound 100]", "pIC50": "≥ 10.00"}

Incoming: If you can, please state the reported pIC50 value of COc1cc(OC2C(C)(C)C(NC(=O)c3ccc(N4CC(N5CCC6(CCC(n7nc(N8CCCc9cc(-c%10cnn(C)c%10)c(C(F)F)cc98)c8c7CCN(C(C)=O)C8)CC6)CC5)C4)cc3)C2(C)C)ccc1C#N (centres unmarked) [Compound 301] .
Outgoing: ≥ 10.00

----------
Test system: VCaP cells
Assay: VCaP growth inhibition assay
Type: cell-based
Details: 30 pM R1881, 9 days, CTG
For each record, write down the corresponding IC50.

{"molecule": "CC(=O)N1CCc2c(c(N3CCCc4cc(-c5cnn(C)c5)c(C(F)F)cc43)nn2C2CC3(CCN(C4CCN(c5ncc(C(=O)NC6C(C)(C)C(Oc7ccc(C#N)c(Cl)c7)C6(C)C)cn5)CC4)CC3)C2)C1 (stereo not drawn)", "IC50": "≤ 100 pM"}
{"molecule": "CC(=O)N1CCc2c(c(N3CCCc4cc(-c5cnn(C)c5)c(C(F)F)cc43)nn2C2CCN([C@@H]3CCN(c4ncc(C(=O)NC5C(C)(C)C(Oc6ccc(C#N)c(Cl)c6)C5(C)C)cn4)C3)CC2)C1 (stereo partly drawn)", "IC50": "100 to 1000 pM"}
{"molecule": "CC(=O)N1CCc2c(c(N3CCCc4cc(-c5cnn(C)c5)c(C(F)F)cc43)nn2C2CCN(Cc3cn(Cc4ncc(C(=O)NC5C(C)(C)C(Oc6ccc(C#N)c(Cl)c6)C5(C)C)cn4)nn3)CC2)C1 (stereo not drawn)", "IC50": "≤ 100 pM"}

// each listed molecule needs a value for IC50
1. CC(=O)N1CCc2c(c(N3CCCc4cc(-c5cnn(C)c5)c(C)cc43)nn2C2CCN(CC3CCN(c4ncc(C(=O)NC5C(C)(C)C(Oc6ccc(C#N)c(C)c6)C5(C)C)cn4)CC3(C)C)CC2)C1 (stereo not drawn)
2. COc1cc(OC2C(C)(C)C(NC(=O)c3ccc(N4CC5(CCC(N6CCC(n7nc(N8CCCc9cc(-c%10ccn(C)n%10)c(C(F)F)cc98)c8c7CCN(C(C)=O)C8)CC6)CC5)C4)cc3)C2(C)C)ccc1C#N (stereo not drawn)

Outgoing:
["100 to 1000 pM", "≤ 100 pM"]

----------
Test system: VCaP cells
Test: VCaP growth inhibition assay
Assay type: cell-based
Details: 30 pM R1881, 9 days, CTG
property_measured: IC50

{"molecule": "COc1cc(OC2C(C)(C)C(NC(=O)c3ccc(OC4CCC5(CC4)CC(N4CCC(n6nc(N7CCCc8cc(-c9cnn(C)c9)c(C(F)F)cc87)c7c6CCN(C(C)=O)C7)CC4)C5)cc3)C2(C)C)ccc1C#N (stereo not drawn) [Compound 396]", "target_under_test": "VCaP cells", "IC50": "0.1 to 1 nM"}

Each molecule below has a reported value. Please supply its IC50.
1. CC(=O)N1CCc2c(c(N3CCCc4cc(-c5cnn(C)c5)c(C(F)F)cc43)nn2C2CCC(C3CCC4(CC3)CN(c3ncc(C(=O)NC5C(C)(C)C(Oc6ccc(C#N)c(Cl)c6)C5(C)C)cn3)C4)CC2)C1 (stereo not drawn) [Compound 377]
2. COc1cc(OC2C(C)(C)C(NC(=O)c3ccc(N4CC5CC4CC5CN4CCC(n5nc(N6CCCc7cc(-c8cnn(C)c8)c(C(F)F)cc76)c6c5CCN(C(C)=O)C6)CC4)cc3)C2(C)C)ccc1C#N (stereo not drawn) [Compound 255]
3. CC(=O)N1CCc2c(c(N3CCCc4cc(-c5cnn(C)c5)c(C(F)F)cc43)nn2C2CCN(C3CCC4(CC3)CC(Oc3ncc(C(=O)NC5C(C)(C)C(Oc6ccc(C#N)c(Cl)c6)C5(C)C)cn3)C4)CC2)C1 (stereo not drawn) [Compound 383]
4. CC(=O)N1CCc2c(c(N3CCCc4cc(-c5cnn(C)c5)c(C(F)F)cc43)nn2C2CCN(C3CC4(C3)CN(c3ncc(C(=O)NC5C(C)(C)C(Oc6ccc(C#N)c(Cl)c6)C5(C)C)cn3)C4)CC2)C1 (stereo not drawn) [Compound 348]
5. COc1cc(OC2C(C)(C)C(NC(=O)c3ccc(N4CC5(CC(N6CCC(n7nc(N8CCCc9cc(-c%10cnn(C)c%10)c(C(F)F)cc98)c8c7CCN(C(C)=O)C8)CC6)C5)C4)cc3)C2(C)C)ccc1C#N (stereo not drawn) [Compound 349]
6. COc1cc(OC2C(C)(C)C(NC(=O)c3ccc(N4CCC(C(=O)N5CCC(n6nc(-c7cccc8cc(C9CC9)ncc78)c7c6CCN(C(C)=O)C7)CC5)CC4)cc3)C2(C)C)ccc1C#N (stereo not drawn) [Compound 256]
7. CC(=O)N1CCc2c(c(-c3cccc4cc(-c5ccc(CCC6CC7(C6)CN(c6ncc(C(=O)NC8C(C)(C)C(Oc9ccc(C#N)c(Cl)c9)C8(C)C)cn6)C7)nc5)ncc34)nn2C)C1 (stereo not drawn) [Compound 229]

Outgoing:
["1 to 100 nM", "0.1 to 1 nM", "0.1 to 1 nM", "≤ 0.1 nM", "≤ 0.1 nM", "0.1 to 1 nM", "0.1 to 1 nM"]

Go through the list and state IC50 for each entry.
1. CC(=O)N1CCc2c(c(Nc3ccc(-c4cnn(C)c4)cc3F)nn2C2CCN(CCN3CCN(c4ncc(C(=O)NC5C(C)(C)C(Oc6ccc(C#N)c(Cl)c6)C5(C)C)cn4)CC3)CC2)C1 (stereo not drawn) [Compound 167]
2. CC(=O)N1CCc2c(c(N3CCCc4cc(-c5cnn(C)c5)c(C(F)F)cc43)nn2C2CCC(CN3CCN(c4ncc(C(=O)NC5C(C)(C)C(Oc6ccc(C#N)c(Cl)c6)C5(C)C)cn4)CC3)CC2)C1 (stereo not drawn) [Compound 320]
3. CC(=O)N1CCc2c(c(Nc3ccc(-c4cnn(C)c4)cc3F)nn2C2CN(CCN3CCN(c4ncc(C(=O)NC5C(C)(C)C(Oc6ccc(C#N)c(Cl)c6)C5(C)C)cn4)CC3)C2)C1 (stereo not drawn) [Compound 164]
4. CC(=O)N1CCc2c(c(N3CCCc4cc(-c5cnn(C)c5)c(C(F)F)cc43)nn2CCCN(C)c2ncc(C(=O)NC3C(C)(C)C(Oc4ccc(C#N)c(Cl)c4)C3(C)C)cn2)C1 (stereo not drawn) [Compound 44]
5. COc1cc(OC2C(C)(C)C(NC(=O)c3ccc(N4CC5(CCC(N6CCC(n7nc(N8CCCc9cc(-c%10cnn(C)c%10)c(C(F)F)cc98)c8c7CCN(C(C)=O)C8)CC6)CC5)C4)cc3)C2(C)C)ccc1C#N (stereo not drawn) [Compound 273]

Outgoing:
1. 0.1 to 1 nM
2. 0.1 to 1 nM
3. ≤ 0.1 nM
4. > 100 nM
5. ≤ 0.1 nM

Give IC50 for all molecules that follow.
1. CC(=O)N1CCc2c(c(-c3cccc4cc(-c5ccc(C(=O)NCCCc6ncc(C(=O)NC7C(C)(C)C(Oc8ccc(C#N)c(Cl)c8)C7(C)C)cn6)nc5)ncc34)nn2C2CCOCC2)C1 (stereo not drawn) [Compound 77]
2. COc1cc(OC2C(C)(C)C(NC(=O)c3ccc(N4CCC(N5CC6(CCC(n7nc(N8CCCc9cc(-c%10cnn(C)c%10)c(C(F)F)cc98)c8c7CCN(C(C)=O)C8)CC6)C5)CC4)cc3)C2(C)C)ccc1C#N (stereo not drawn) [Compound 372]
3. COc1cc(OC2C(C)(C)C(NC(=O)c3ccc(N4CCC(N5CCC(n6nc(N7CCCc8cc(-c9cnn(C)c9)c(C(F)F)cc87)c7c6CCN(C(C)=O)C7)CC5)C(F)(F)C4)cc3)C2(C)C)ccc1C#N (stereo not drawn) [Compound 302]
4. CC(=O)N1CCc2c(c(N3CCCc4cc(-c5cnn(C)c5)c(C(F)F)cc43)nn2C2CCN(C(=O)C3CCN(c4ccc5c(n4)CN(C4C(C)(C)C(Oc6ccc(C#N)c(Cl)c6)C4(C)C)C5=O)CC3)CC2)C1 (stereo not drawn) [Compound 299]
5. COc1cc(OC2C(C)(C)C(NC(=O)c3ccc(N4CCC(CCn5cc(-c6cc7cccc(-c8nn(C9CCOCC9)c9c8CN(C(C)=O)CC9)c7cn6)cn5)CC4)cc3)C2(C)C)ccc1C#N (stereo not drawn) [Compound 244]

Outgoing:
0.1 to 1 nM
≤ 0.1 nM
≤ 0.1 nM
0.1 to 1 nM
0.1 to 1 nM

Where these numbers come from: patent US20250129070A1
